test: two-component Cys/Cys stapling: bis-thiol-Michael addition to 4,6-divinylpyrimidine bearing N-methylglycine (constraint 1 = A), 1.1 equiv; TCEP 1.1 equiv added if the peptide had oxidised; conditions: the molecule shown is the open-chain precursor; 30-membered ring; 100 mM phosphate buffer pH 7.4 with DMSO from peptide and staple stocks; 2.8 mM; 22.0 °C; 2 steps
REPORTED_METRIC: ring closure, yield over several steps (%)
Output spec: scalar in %, unitless text.

STRUCTURE_STRING: C=Cc1cc(CCSC[C@H](NC(C)=O)C(=O)NCC(=O)N[C@H](C(=O)NCC(=O)N[C@@H](Cc2cc(F)cc(F)c2)C(=O)NCC(=O)N[C@@H](CS)C(N)=O)[C@@H](C)CC)nc(N(C)CC(=O)O)n1
UOM: %
ring closure, yield over several steps: 14.1

Need ring closure, yield over several steps of C=Cc1cc(CCSC[C@H](NC(C)=O)C(=O)NCC(=O)N[C@H](C(=O)NCC(=O)N[C@@H](C)C(=O)NCC(=O)N[C@@H](CS)C(N)=O)[C@@H](C)CC)nc(N(C)CC(=O)O)n1 , thanks. 90.6

Sample C=Cc1cc(CCSC[C@H](NC(C)=O)C(=O)N[C@H](C(=O)NCC(=O)N[C@@H](Cc2ccccc2)C(=O)NCC(=O)N[C@@H](C)C(=O)N[C@@H](CS)C(N)=O)[C@@H](C)CC)nc(N(C)CC(=O)O)n1 — what was its ring closure, yield over several steps? 25.7

I have this molecule here, C=Cc1cc(CCSC[C@H](NC(C)=O)C(=O)NCC(=O)N[C@H](C(=O)NCC(=O)N[C@@H](Cc2ccccc2)C(=O)NCC(=O)N[C@@H](CS)C(N)=O)[C@@H](C)CC)nc(N(C)CC(=O)O)n1 , and I need its recorded ring closure, yield over several steps. 6.8

I'd like to know its ring closure, yield over several steps. The molecule in question is C=Cc1cc(CCSC[C@H](NC(C)=O)C(=O)NCC(=O)N[C@H](C(=O)NCC(=O)N[C@H](Cc2ccccc2)C(=O)NCC(=O)N[C@@H](CS)C(N)=O)[C@@H](C)CC)nc(N(C)CC(=O)O)n1 61
